# assay-method-text: DDI study: pharmacokinetics of zanubrutinib in rats alone or with fluconazole / isavuconazole
# Format: in vivo, Sprague–Dawley (SD) rats
# study-conditions: Sprague-Dawley, rat, plasma, po, 30 mg/kg, rats, zanubrutinib 30 mg/kg gavage; Group C: 20 mg/kg fluconazole; n = 6, mean ± SD
value-type: AUC(0-t) (ng·h/mL)

entry-smiles: C=CC(=O)N1CCC([C@@H]2CCNc3c(C(N)=O)c(-c4ccc(Oc5ccccc5)cc4)nn32)CC1
observed-measurement: 1720

====

# assay-method-text: DDI study: pharmacokinetics of zanubrutinib in rats alone or with fluconazole / isavuconazole
# Assay type: in vivo, Sprague–Dawley (SD) rats
# study-conditions: Sprague-Dawley, rat, plasma, po, 30 mg/kg, rats, zanubrutinib 30 mg/kg gavage; Group B: 20 mg/kg isavuconazole; n = 6, mean ± SD; read-out: CLz/F (converted)

compound: C=CC(=O)N1CCC([C@@H]2CCNc3c(C(N)=O)c(-c4ccc(Oc5ccccc5)cc4)nn32)CC1 [zanubrutinib]
CL/F (mL/min/kg): 394

====

# assay-method-text: DDI study: pharmacokinetics of zanubrutinib in rats alone or with fluconazole / isavuconazole
# Format: in vivo, Sprague–Dawley (SD) rats
# study-conditions: Sprague-Dawley, rat, plasma, po, 30 mg/kg, rats, zanubrutinib 30 mg/kg gavage; Group C: 20 mg/kg fluconazole; n = 6, mean ± SD

compound: C=CC(=O)N1CCC([C@@H]2CCNc3c(C(N)=O)c(-c4ccc(Oc5ccccc5)cc4)nn32)CC1 [zanubrutinib]
Cmax (ng/mL): 495

====

# assay-method-text: DDI study: pharmacokinetics of zanubrutinib in rats alone or with fluconazole / isavuconazole
# Type: in vivo, Sprague–Dawley (SD) rats
# study-conditions: Sprague-Dawley, rat, plasma, po, 30 mg/kg, rats, zanubrutinib 30 mg/kg gavage; Group C: 20 mg/kg fluconazole; n = 6, mean ± SD
value-type: Tmax

entry-smiles: C=CC(=O)N1CCC([C@@H]2CCNc3c(C(N)=O)c(-c4ccc(Oc5ccccc5)cc4)nn32)CC1
observed-measurement: 2.17 h

====

# assay-method-text: DDI study: pharmacokinetics of zanubrutinib in rats alone or with fluconazole / isavuconazole
# Assay type: in vivo, Sprague–Dawley (SD) rats
# study-conditions: Sprague-Dawley, 30 mg/kg; a rat plasma sample obtained 1 h after oral administration of zanubrutinib
value-type: concentration at 1 h

compound: C=CC(=O)N1CCC([C@@H]2CCNc3c(C(N)=O)c(-c4ccc(Oc5ccccc5)cc4)nn32)CC1 [zanubrutinib]
observed-measurement: 230 ng/mL

====

# assay-method-text: DDI study: pharmacokinetics of zanubrutinib in rats alone or with fluconazole / isavuconazole
# Format: in vivo, Sprague–Dawley (SD) rats
# study-conditions: Sprague-Dawley, rat, plasma, po, 30 mg/kg, rats, zanubrutinib 30 mg/kg gavage; Group B: 20 mg/kg isavuconazole; n = 6, mean ± SD
value-type: AUC(0-inf)

entry-smiles: C=CC(=O)N1CCC([C@@H]2CCNc3c(C(N)=O)c(-c4ccc(Oc5ccccc5)cc4)nn32)CC1
observed-measurement: 1270 ng·h/mL

====

# assay-method-text: DDI study: pharmacokinetics of zanubrutinib in rats alone or with fluconazole / isavuconazole
# Type: in vivo, Sprague–Dawley (SD) rats
# study-conditions: Sprague-Dawley, rat, plasma, po, 30 mg/kg, rats, zanubrutinib 30 mg/kg gavage; Group A: the control group (0.5% CMC-Na); n = 6, mean ± SD; read-out: Vz/F

entry-smiles: C=CC(=O)N1CCC([C@@H]2CCNc3c(C(N)=O)c(-c4ccc(Oc5ccccc5)cc4)nn32)CC1
Vd/F (L/kg): 53.2
